All figures here come from patent US20260185163A1.

Target: T1, StrepII-Avi-TEV-Menin T349M (recombinant mutant human Menin) (human, UniProt O00255 1-610)
T1 construct: The mutant plasmid was made from the wild-type StrepII-Avi-TEV Menin construct; also called T349M-mutant Menin; T349M Menin
T1 sequence: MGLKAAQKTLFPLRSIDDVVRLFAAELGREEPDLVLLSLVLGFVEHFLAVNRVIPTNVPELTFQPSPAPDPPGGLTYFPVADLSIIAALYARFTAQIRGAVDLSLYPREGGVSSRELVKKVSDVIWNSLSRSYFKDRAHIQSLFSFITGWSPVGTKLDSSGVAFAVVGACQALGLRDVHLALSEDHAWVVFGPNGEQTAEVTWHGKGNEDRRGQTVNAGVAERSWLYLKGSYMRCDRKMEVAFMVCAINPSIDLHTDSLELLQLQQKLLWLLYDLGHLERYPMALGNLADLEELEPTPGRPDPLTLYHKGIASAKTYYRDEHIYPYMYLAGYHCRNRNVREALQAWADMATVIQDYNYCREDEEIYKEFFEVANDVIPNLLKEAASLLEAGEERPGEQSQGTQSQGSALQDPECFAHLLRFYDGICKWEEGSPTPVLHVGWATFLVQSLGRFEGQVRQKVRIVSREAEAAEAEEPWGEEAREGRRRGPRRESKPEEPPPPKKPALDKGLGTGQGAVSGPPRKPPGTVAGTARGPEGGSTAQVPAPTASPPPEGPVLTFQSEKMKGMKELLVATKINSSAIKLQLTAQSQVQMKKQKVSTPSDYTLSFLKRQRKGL
Experiment: fluorescence polarization; 1 nM FITC-MLL1 4-43(C-A) probe titrated with StrepII-Avi-TEV-Menin; one site total fit; mean±S.D., N=3
Ends that are not written are not given here. * marks the point of attachment. FITC = O=C1OC2(c3ccc(O)cc3Oc3cc(O)ccc32)c2ccc(NC(=S)*)cc21
metric: pKd
Please express pKd as -log10 of the molar concentration.

// query pKd value for entry {FITC}-SARWRFPARPGTTGGGGGGGRRGLGGAPRQRVPALLLPPGY (not fully specified, also called FITC-MLL14-43(C-A) peptide; MLL1 peptide) [N-terminal FITC-conjugated MLL1 4-43(C-A) peptide probe]
8.52
